FYI, the data here is from ChEMBL document CHEMBL1201862.

- Test system: MDA-N
- protocol.text: NCI tumour cell line growth inhibition, 48 h
Active and inactive are the calls of the source. Cut-off read from the data, not from the text of the source: active = GI50 up to about 1.1 µM and inactive = higher.
The entries below come with measured GI50 values attached.

- compound: "OC1CSCCCSCCSCCCSC1"
  GI50: "> 100 µM (inactive)"
- compound: "CC1(C)CN=C(Nc2ccc(F)cc2)S1"
  GI50: "> 100 µM (inactive)"
- compound: "CC(=O)O.CN1CCN(CN2C(=O)C3C4C=CC(C3C2=O)C2C3C(=O)N(CN5CCN(C)CC5)C(=O)C3C42)CC1 (stereo unspecified)"
  GI50: "17.8 µM (inactive)"
- compound: "C=C1C2CCC3(CCC4C5(C)CCCC4(C=[N+](CCO)C5)C3C2)C1O (stereo unspecified)"
  GI50: "> 100 µM (inactive)"
- compound: "CN(C)c1nc2n(CCO)c(-c3ccccc3)c(-c3ccccc3)nc-2c(=O)n1"
  GI50: "> 100 µM (inactive)"
- compound: "O=C1c2ccccc2-c2ccc(/N=N/c3c(O)ccc4ccccc34)cc21"
  GI50: "> 100 µM (inactive)"
- compound: "CC(C)(C)OC(=O)N1CC(O)O[C@H](c2ccccc2)[C@@H]1c1ccccc1 (stereo partly specified)"
  GI50: "28.2 µM (inactive)"
- compound: "O=C(c1ccccc1)c1ccc(N2C(=O)/C(=C/Cc3ccco3)N=C2c2ccccc2)c(N2C(=O)/C(=C/Cc3ccco3)N=C2c2ccccc2)c1"
  GI50: "60.3 µM (inactive)"

Lookup: # input compound: `CN(C1=NCCO1)c1cccc2ccccc12` ; wanted: its GI50
Found: > 10 µM (inactive)

Lookup: # input compound: CCCCCCCCCCCCCC(=O)OCC(CCS(=O)(=O)O[C@H]1CC[C@@]2(C)C(=CC[C@@H]3C2CC[C@]2(C)C(=O)CCC32)C1)OC(=O)CCCCCCCCCCCCC (stereo partly specified) ; wanted: its GI50
Found: > 100 µM (inactive)

Lookup: # input compound: `CCOC(=O)Cc1csc(N/N=C2\C(=O)Nc3ccccc32)n1` ; wanted: its GI50
Found: 41.8 µM (inactive)

Lookup: # input compound: `O=[N+]([O-])c1cc(-c2nnc(C34CC5CC(CC(C5)C3)C4)o2)cc([N+](=O)[O-])c1` ; wanted: its GI50
Found: 24.4 µM (inactive)

Lookup: # input compound: `S=C(NCCc1ccccn1)c1nc[nH]c1C(=S)NCCc1ccccn1` ; wanted: its GI50
Found: 41.7 µM (inactive)

Lookup: # input compound: CCC(C)C(=O)O[C@H]1C(=O)O[C@@H]2C[C@H]3C(C)=CC(=O)[C@@H](O)[C@]3(C)[C@H]3[C@@H](O)[C@H](O)[C@@]4(C)OC[C@]32[C@@H]14 (stereo partly specified) ; wanted: its GI50
Found: < 0.01 µM (active)

Lookup: # input compound: `O=C(NC(=O)c1ccccc1[N+](=O)[O-])Nc1ccc(Oc2ncc(Cl)cn2)c(C(F)(F)F)c1` ; wanted: its GI50
Found: < 0.01 µM (active)

Lookup: # input compound: `O=C(O)c1cc(/C=C/c2ccc(O)c(O)c2)ccc1O` ; wanted: its GI50
Found: 34.8 µM (inactive)

* * *

- Tested on: SNB-19
- protocol.text: NCI tumour cell line growth inhibition, 48 h
Activity calls are given as the source filed them. No stated cut-off is given here; in the data, active = GI50 up to about 1.1 µM and inactive = higher.
Give one outcome, nothing more. List: active, inactive

Worked cases, answers included:
- molecule: "Cc1ccc(NC(=O)/C(=N/NC(=O)CC#N)C2C(=O)N(c3ccccc3)N=C2N)cc1C (centres undefined)"
  label.value: "inactive"
- molecule: "N=C1OC(CN2CCN(c3ccccc3)CC2)CN1C(=O)Nc1ccccc1 (centres undefined)"
  label.value: "inactive"
- molecule: "CCCCCCCCCCCCCCCCNc1nc(=O)n(C2CC(O)C(COP(=O)(O)OC3CC(n4cc(F)c(=O)[nH]c4=O)OC3CO)O2)cc1F (centres undefined)"
  label.value: "active"
- molecule: "O=C(c1ccccc1)c1ccc(N2C(=O)/C(=C/Cc3ccco3)N=C2c2ccccc2)c(N2C(=O)/C(=C/Cc3ccco3)N=C2c2ccccc2)c1"
  label.value: "inactive"
- molecule: "CC(=O)OCC1OC(Oc2cc(C)c(O)cc2C/C=C(\\C)CC/C=C(\\C)CC(=O)CC(C)C)C(O)C(OC(C)=O)C1OC(C)=O (centres undefined)"
  label.value: "inactive"

Lookup: Please state the recorded outcome for this molecule: O=C(CC(O)(c1ccccc1)c1ccc(Cl)cc1)NC(=O)c1ccccc1O (centres undefined)
Found: inactive

Lookup: Please state the recorded outcome for this molecule: `Cc1ccc(C2=Nc3cc(C)c(Cl)cc3S(=O)(=O)NN2)cc1`
Found: inactive

Lookup: Please state the recorded outcome for this molecule: COC(=O)C(/C(=N/NC(N)=S)C(=O)Nc1ccccc1[N+](=O)[O-])c1cnc2ccccc2n1 (centres undefined)
Found: inactive

Lookup: Please state the recorded outcome for this molecule: `CN(C)c1ccc(C=c2c3ccccc3n3c2cc(-c2ccc(Cl)cc2)[n+]3C)cc1`
Found: active

Lookup: Please state the recorded outcome for this molecule: O=C(O)CCC(=O)c1ccc2c(c1)C(C(=O)O)CC2 (centres undefined)
Found: inactive
